meta.source: paper PMC4771712

# test-target: T1, GST fusion of the FAT (focal adhesion targeting) domain of focal adhesion kinase, human FAK 892-1052 (human, UniProt Q05397 892-1052)
# T1 construct: focal adhesion kinase (FAK), human, FAT domain, residues 892-1052; Cloned into pGEX4T1; For the pull-down provided by Dr. M. K. Hoellerer; for bio-layer interferometry the same construct was synthesised (GeneArt) and made by the same procedure; also called GST-FAT; GST labeled FAT; source: E. coli BL21 (DE3), purified using GST-4B beads
# T1 sequence (looked up): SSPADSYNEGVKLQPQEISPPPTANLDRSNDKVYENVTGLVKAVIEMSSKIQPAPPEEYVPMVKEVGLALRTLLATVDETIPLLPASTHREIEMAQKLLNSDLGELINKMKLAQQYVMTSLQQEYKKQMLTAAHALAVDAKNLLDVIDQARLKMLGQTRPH
# assay-details: BLI; GST-FAT immobilised on Anti-GST biosensors (20 μg/ml in PBS), paxillin constructs as analytes in PBS with Tween 20 (0.05%) and BSA (1%), Octet RED96, global fitting (B2 1:1 model, C35_1 to C35_3 2:1 model)
# protocol-conditions: both partners purified
Below, each entry is listed with its recorded stoichiometry N.
API: value field is a number in construct per FAT; no unit string.

In the examples that follow, each entry is paired with its recorded stoichiometry N.
>>> numeric_readout("paxillin Construct C35_1 (54-189) (domain or fragment, human, UniProt P49023-2 54-189, looked up, human paxillin residues 54-189; Cloned into pET28a; source: E. coli BL21DE3, purified) SSEALNGTILDPLDQWQPSSSRFIHQQPQSSSPVYGSSAKTSSVSNPQDSVGSPCSRVGEEEHVYSFPNKQKSAEPSPTVMSTSLGSNLSELDRLLLELNAVQHNPPGFPADEANSSPPLPGALSPLYGVPETNSP")
2
>>> numeric_readout("paxillin Construct C35_3 (105-189) (domain or fragment, human, UniProt P49023-2 105-189, looked up, human paxillin residues 105-189; Cloned into pET28a; source: E. coli BL21DE3, purified) GSPCSRVGEEEHVYSFPNKQKSAEPSPTVMSTSLGSNLSELDRLLLELNAVQHNPPGFPADEANSSPPLPGALSPLYGVPETNSP")
2
>>> numeric_readout("paxillin Construct C35_2 (79-189) (domain or fragment, human, UniProt P49023-2 79-189, looked up, human paxillin residues 79-189; Cloned into pET28a; source: E. coli BL21DE3, purified) QQPQSSSPVYGSSAKTSSVSNPQDSVGSPCSRVGEEEHVYSFPNKQKSAEPSPTVMSTSLGSNLSELDRLLLELNAVQHNPPGFPADEANSSPPLPGALSPLYGVPETNSP")
2

Prompt: // returns reported stoichiometry N for input paxillin construct B2, expressed in E. coli for bio-layer interferometry (domain or fragment) SSEALNGTILDPLDQWQPSSSRFIHQQPQSSSPVYGSSAKTSSVSNPQDSVGSPCSRVGEEEHVYSFPNKQKSAEPSPTVMSTSLGSNLSELDRLLLELNAVQHNPPGFPADEANSSPPLPGALSPLYGVPETNSPLGGKAGPLTKEKPKRNGGRGLEDVRPSVESLLDELESSVPSPVPAITVNQGEMSSPQRVTSTQQQTRISASSATRELDELMASLSDFKFM
Completion: 1
